FYI, the data here is from PubChem BioAssay (NCATS).

System: PC15
Experiment: qHTS profiling for inhibitors of Plasmodium falciparum proliferation (AID 504749); also: nearly all actives have a fitted effect of over 60% in size
Settings: P. falciparum in erythrocytes, SYBR Green DNA, 72 h; series mostly up to 12.8 µM
Records with an inconclusive call do not appear. Activity calls are given as the source filed them. Calls follow the shape of the dose curve; as a rule, active = well fitted inhibition curve with a large enough effect; inconclusive = small, poorly fitted or top-dose-only effect; inactive = flat fitted curve, though single readings scatter.
Possible outcomes: active, inactive

# compound, answer label
records = [
    ("Cc1ccsc1/C=C\\C1=NCCCN1C", "inactive"),
    ("CC1(C)OC2CC(=O)OC[C@@]23C1CC(=O)[C@]1(C)C3CC[C@@]2(C)C(c3ccoc3)OC(=O)C3O[C@@]321 (stereo partly drawn)", "inactive"),
    ("COC1C=CO[C@@]2(C)Oc3c(C)c(O)c4c(O)c(c(C=NN5CCN(C)CC5)c(O)c4c3C2=O)NC(=O)/C(C)=C\\C=CC(C)C(O)[C@@H](C)C(O)C(C)[C@H](OC(C)=O)C1C (stereo partly drawn)", "active"),
    ("COc1ccc(OC)c([C@H](O)CNC(=O)CN)c1", "inactive"),
    ("C[C@H](C(=O)O)c1cccc(Oc2ccccc2)c1", "inactive"),
    ("NS(=O)(=O)c1cc2c(cc1Cl)N[C@@H](C(Cl)Cl)NS2(=O)=O", "inactive"),
    ("CCN[C@@H]1C[C@H](N)[C@H](O[C@H]2OC(CN)=CC[C@H]2N)[C@@H](O)[C@H]1O[C@H]1OC[C@@](C)(O)[C@@H](NC)[C@@H]1O", "inactive"),
    ("CC(=O)OCC(=O)[C@@]1(O)CC[C@@H]2[C@H]3CCC4=CC(=O)C=C[C@]4(C)[C@]3(F)[C@@H](O)C[C@@]21C", "inactive"),
    ("CC(C)(C)NC(=O)[C@@H]1CC[C@@H]2[C@@H]3CC[C@@H]4NC(=O)C=C[C@@]4(C)[C@H]3CC[C@]21C", "inactive"),
    ("CC(C)(C)NC[C@H](O)COc1cccc2c1CCC(=O)N2", "inactive"),
    ("CCCCC[C@H](O)/C=C\\[C@@H]1[C@H](O)CC(=O)[C@@H]1CCCCCCC(=O)O", "inactive"),
    ("CC(C)(C)NC[C@@H](O)COc1ccccc1C1CCCC1", "active"),
    ("NCc1ccccc1CC(=O)N[C@@H]1C(=O)N2C(C(=O)O)=C(CSc3nnnn3CC(=O)O)CS[C@@H]12", "inactive"),
    ("CCO[C@H]1O[C@@H]([C@H](COCc2ccccc2)OCc2ccccc2)[C@@H](OCc2ccccc2)[C@H]1O", "inactive"),
    ("CC[C@H]1NC(=O)c2cc(S(N)(=O)=O)c(Cl)cc2N1", "inactive"),
    ("CCN[C@@H]1CN(CCCOC)S(=O)(=O)c2sc(S(N)(=O)=O)cc21", "inactive"),
    ("NS(=O)(=O)c1cc2c(cc1Cl)N[C@@H](CC1CCCC1)NS2(=O)=O", "inactive"),
    ("C[N+]12CCC(CC1)[C@@H](OC(=O)C(O)(c1ccccc1)c1ccccc1)C2", "inactive"),
]

----------
Biological target: Rap guanine nucleotide exchange factor 3 (Homo sapiens) (UniProt O95398)
Sequence (O95398 whole entry, looked up): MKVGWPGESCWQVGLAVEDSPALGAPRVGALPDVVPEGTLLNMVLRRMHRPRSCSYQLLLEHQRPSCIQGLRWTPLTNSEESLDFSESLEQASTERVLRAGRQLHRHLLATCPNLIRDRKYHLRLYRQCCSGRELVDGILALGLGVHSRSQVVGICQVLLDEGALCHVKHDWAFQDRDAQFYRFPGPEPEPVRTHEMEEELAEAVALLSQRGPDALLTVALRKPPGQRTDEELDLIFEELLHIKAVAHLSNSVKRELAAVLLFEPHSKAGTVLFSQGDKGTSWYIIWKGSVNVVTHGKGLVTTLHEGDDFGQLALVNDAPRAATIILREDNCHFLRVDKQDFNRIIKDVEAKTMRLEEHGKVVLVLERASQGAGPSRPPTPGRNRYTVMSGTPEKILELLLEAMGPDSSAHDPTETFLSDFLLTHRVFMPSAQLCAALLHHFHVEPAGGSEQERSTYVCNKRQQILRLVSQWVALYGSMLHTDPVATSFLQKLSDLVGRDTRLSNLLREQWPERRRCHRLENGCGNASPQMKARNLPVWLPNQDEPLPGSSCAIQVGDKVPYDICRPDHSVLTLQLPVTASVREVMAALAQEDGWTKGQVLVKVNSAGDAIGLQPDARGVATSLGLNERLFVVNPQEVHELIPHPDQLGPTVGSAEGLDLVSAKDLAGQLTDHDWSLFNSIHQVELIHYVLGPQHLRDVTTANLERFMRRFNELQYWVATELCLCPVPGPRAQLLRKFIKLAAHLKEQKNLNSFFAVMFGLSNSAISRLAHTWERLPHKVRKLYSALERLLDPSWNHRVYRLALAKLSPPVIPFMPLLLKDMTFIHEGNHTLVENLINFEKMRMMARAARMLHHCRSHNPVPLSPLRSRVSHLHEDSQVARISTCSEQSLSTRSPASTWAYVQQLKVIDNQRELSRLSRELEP
Test: Confirmatory qHTS for agonist of cAMP-regulated guanine nucleotide exchange factor 3 (EPAC1) (AID 1645881); also: nearly all actives have a fitted effect of over 75% in size;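 as to activation: EPAC1 catalysed release of BODIPY-GDP from Rap1B seen as fluorescence loss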
Conditions: EPAC1 Rap1B BODIPY-GDP exchange fluorescence; series mostly up to 154 µM
Inconclusive results are not listed. Active and inactive are the calls of the source. Calls follow the shape of the dose curve; as a rule, active = well fitted activation curve with a large enough effect; inconclusive = small, poorly fitted or top-dose-only effect; inactive = no such curve, though single readings can be large or run the other way.
Possible outcomes: active, inactive

# molecule, system under test, answer label
records = [
    ("COC1=CC(=O)c2c(ccc3ncnc(N)c23)C1=O", "Rap guanine nucleotide exchange factor 3 (Homo sapiens) (UniProt O95398)", "inactive"),
    ("Cc1nn(-c2ccccc2)c(C)c1NC(=O)COC(=O)Cc1cccc(C(F)(F)F)c1", "Rap guanine nucleotide exchange factor 3 (Homo sapiens) (UniProt O95398)", "inactive"),
    ("COc1cc(/C=C2/C(=O)NN(c3ccc(C)c(Cl)c3)C2=O)cc([N+](=O)[O-])c1O", "Rap guanine nucleotide exchange factor 3 (Homo sapiens) (UniProt O95398)", "inactive"),
    ("Cc1ccc([C@H]2C(C(=O)O)=CC[C@@H](c3ccc(Cl)c(Cl)c3)N2S(=O)(=O)c2ccc(C)cc2)cc1", "Rap guanine nucleotide exchange factor 3 (Homo sapiens) (UniProt O95398)", "inactive"),
    ("O=C(CSc1nc(-c2ccc(F)cc2)nc2c1Cc1ccccc1O2)Nc1cccc(C(=O)O)c1", "Rap guanine nucleotide exchange factor 3 (Homo sapiens) (UniProt O95398)", "inactive"),
    ("Cc1ccc(C)c(-n2c3nc(=O)[nH]c(=O)c-3cc3cc([N+](=O)[O-])ccc32)c1", "Rap guanine nucleotide exchange factor 3 (Homo sapiens) (UniProt O95398)", "inactive"),
    ("CC(=O)N1CCc2cc(Br)cc(S(=O)(=O)NCCCN(C)Cc3ccccc3)c21", "Rap guanine nucleotide exchange factor 3 (Homo sapiens) (UniProt O95398)", "inactive"),
    ("COc1ccc(CCNC(=O)CCc2nc3sc4c(c3c(=O)[nH]2)CCCC4)cc1", "Rap guanine nucleotide exchange factor 3 (Homo sapiens) (UniProt O95398)", "inactive"),
    ("CCN(CC)c1ccc2cc(-c3nc(-c4ccccc4F)no3)c(=O)oc2c1", "Rap guanine nucleotide exchange factor 3 (Homo sapiens) (UniProt O95398)", "active"),
    ("Cc1ccc2c(/C=C/c3c[nH]c4ccccc34)ccnc2c1C", "Rap guanine nucleotide exchange factor 3 (Homo sapiens) (UniProt O95398)", "inactive"),
    ("COC(=O)c1cc2sc(C)cc2n1Cc1ccccc1", "Rap guanine nucleotide exchange factor 3 (Homo sapiens) (UniProt O95398)", "inactive"),
    ("C[C@H]1CN([C@@H](C)CO)C(=O)c2cccc(NS(=O)(=O)c3ccc(Cl)cc3)c2O[C@@H]1CN(C)CC1CCCCC1", "Rap guanine nucleotide exchange factor 3 (Homo sapiens) (UniProt O95398)", "inactive"),
    ("Cc1cccc(NC(=O)CC2Nc3cccc4cccc(c34)NC2=O)c1 (configuration not stated)", "Rap guanine nucleotide exchange factor 3 (Homo sapiens) (UniProt O95398)", "inactive"),
    ("COC(=O)C1=C(C)N(Cc2ccco2)C(=O)/C1=C\\c1ccc(N(C)C)cc1", "Rap guanine nucleotide exchange factor 3 (Homo sapiens) (UniProt O95398)", "inactive"),
    ("Cn1c(COc2ccc(Cl)cc2)nc2ccccc2c1=O", "Rap guanine nucleotide exchange factor 3 (Homo sapiens) (UniProt O95398)", "inactive"),
    ("O=C(COC(=O)Cc1ccc(Cl)cc1)Nc1ccc2[nH]c(=O)[nH]c2c1", "Rap guanine nucleotide exchange factor 3 (Homo sapiens) (UniProt O95398)", "inactive"),
    ("CC1S/C(=N/N=C2CCC(C(C)(C)C)CC2)NC1=O (configuration not stated)", "Rap guanine nucleotide exchange factor 3 (Homo sapiens) (UniProt O95398)", "inactive"),
    ("CC1CCN(c2ccc3c(c2)S(=O)(=O)c2ccccc2C3=O)CC1", "Rap guanine nucleotide exchange factor 3 (Homo sapiens) (UniProt O95398)", "active"),
    ("CCOC(=O)c1cc(C(C)(C)C)nc(SC)c1C#N", "Rap guanine nucleotide exchange factor 3 (Homo sapiens) (UniProt O95398)", "inactive"),
    ("C=CCCCN(Cc1ccccc1)S(=O)(=O)c1ccccc1Br", "Rap guanine nucleotide exchange factor 3 (Homo sapiens) (UniProt O95398)", "inactive"),
    ("Nc1nc2c(ncn2[C@@H]2O[C@H](CNCc3ccccc3)[C@@H](O)[C@H]2O)c(=O)[nH]1", "Rap guanine nucleotide exchange factor 3 (Homo sapiens) (UniProt O95398)", "inactive"),
    ("O=C(c1ccc(CSCc2ccccc2F)o1)N1CCN(c2ccc(N3CCOCC3)nn2)CC1", "Rap guanine nucleotide exchange factor 3 (Homo sapiens) (UniProt O95398)", "inactive"),
    ("COc1ccc(C=NNc2ccc([N+](=O)[O-])cc2S(=O)(=O)Nc2ccccc2C(=O)O)cc1OC", "Rap guanine nucleotide exchange factor 3 (Homo sapiens) (UniProt O95398)", "inactive"),
    ("N#Cc1c(-c2ccccc2)nc(SCC(=O)Nc2ccc(OC(F)(F)Cl)cc2)[nH]c1=O", "Rap guanine nucleotide exchange factor 3 (Homo sapiens) (UniProt O95398)", "inactive"),
    ("CCOc1c(O)ccc(/C=C2\\SC(=S)NC2=O)c1[N+](=O)[O-]", "Rap guanine nucleotide exchange factor 3 (Homo sapiens) (UniProt O95398)", "inactive"),
    ("CCOc1ccc(CCNC(=O)c2cccc(S(=O)(=O)N3CCCCC3)c2)cc1OCC", "Rap guanine nucleotide exchange factor 3 (Homo sapiens) (UniProt O95398)", "inactive"),
    ("N#C/C(=C/c1ccc(O)c(O)c1)c1nc2ccccc2[nH]1", "Rap guanine nucleotide exchange factor 3 (Homo sapiens) (UniProt O95398)", "inactive"),
    ("Cc1[nH]c(C)c2c(=O)n(Cc3ccc(Cl)cc3)ncc12", "Rap guanine nucleotide exchange factor 3 (Homo sapiens) (UniProt O95398)", "inactive"),
    ("COc1ccc(OCC(=O)NCCC2=CCCCC2)c([N+](=O)[O-])c1", "Rap guanine nucleotide exchange factor 3 (Homo sapiens) (UniProt O95398)", "inactive"),
    ("CSCCC(NC(=O)c1ccc(Cl)cc1)C(=O)OCC(=O)N1CCCC1=O (configuration not stated)", "Rap guanine nucleotide exchange factor 3 (Homo sapiens) (UniProt O95398)", "inactive"),
    ("NS(=O)(=O)c1ccc(NC2=CC(=O)C(=O)c3ccccc32)cc1", "Rap guanine nucleotide exchange factor 3 (Homo sapiens) (UniProt O95398)", "inactive"),
    ("COc1cc(CCc2ccccc2)c(C(=O)O)c(O)c1CC=C(C)C", "Rap guanine nucleotide exchange factor 3 (Homo sapiens) (UniProt O95398)", "inactive"),
    ("COCCCn1c(-c2ccccc2)nc2ccccc2c1=O", "Rap guanine nucleotide exchange factor 3 (Homo sapiens) (UniProt O95398)", "inactive"),
    ("COc1ccc(C2c3c(-c4ccccc4O)n[nH]c3C(=O)N2Cc2ccco2)cc1 (configuration not stated)", "Rap guanine nucleotide exchange factor 3 (Homo sapiens) (UniProt O95398)", "inactive"),
    ("COc1cccc(OC)c1OC(=O)/C=C/c1ccc(C)o1", "Rap guanine nucleotide exchange factor 3 (Homo sapiens) (UniProt O95398)", "inactive"),
    ("O=C1NC(=Nc2ccccc2)S/C1=C\\C=C\\c1ccco1", "Rap guanine nucleotide exchange factor 3 (Homo sapiens) (UniProt O95398)", "inactive"),
    ("CCCN1CCN(S(=O)(=O)c2ccc3c(c2)NC(=O)C(C)C(=O)N3)CC1 (configuration not stated)", "Rap guanine nucleotide exchange factor 3 (Homo sapiens) (UniProt O95398)", "inactive"),
    ("CN(C(=O)CSc1nc(-c2ccc(C(C)(C)C)cc2)c(C#N)c(=O)[nH]1)C1CCCCC1", "Rap guanine nucleotide exchange factor 3 (Homo sapiens) (UniProt O95398)", "inactive"),
    ("CSc1nc(N2CCOCC2)c2c3c(sc2n1)CCC3", "Rap guanine nucleotide exchange factor 3 (Homo sapiens) (UniProt O95398)", "inactive"),
    ("CN(CCC#N)C(=O)COC(=O)c1c2c(nc3ccccc13)/C(=C/c1ccco1)CC2", "Rap guanine nucleotide exchange factor 3 (Homo sapiens) (UniProt O95398)", "inactive"),
    ("CNc1ccc(/C=C(\\C#N)C(=O)Nc2ccccn2)cc1[N+](=O)[O-]", "Rap guanine nucleotide exchange factor 3 (Homo sapiens) (UniProt O95398)", "inactive"),
    ("CN1N=C(C(C)(C)C)CC1=O", "Rap guanine nucleotide exchange factor 3 (Homo sapiens) (UniProt O95398)", "inactive"),
]
